- systemUnderTest: rhNav1.7α (rhesus monkey, UniProt Q15858 1-1988 (human entry))
- assay: cell-based or functional assay
quantityName: 2-pulse IC50 [M], P2 (M)
// units = M; emit number, no label

I would be grateful if you could share the reported 2-pulse IC50 [M], P2 for F010300316 (VHH, vs F0103275B05: T57W) VHH: EVQLVESGGGLVQPGGSLRLSCAASGSIFNINSMAWYRRAPGKQRELVASSTNGGSWNYADSVKGRFTISRDNAKRVYLQMNSLTPEDTAVYYCNALLQPSIYDISRTYWGQGTLVTVSS . 4e-06

Consider next the binder F0103387G04 (parental)-FLAG-HIS6 (VHH, also called F01033387G04) VHH: EVQLVESGGGLAQPGGSLRLSCAASGPVFNINKMAWYRRAPGKQRELVASVTPTGSISYTDSVKGRFTISRDGSKRWSLQMNSLTPEDTAVYYCNALLQPDSYSNTRTYWGQGTLVTVSS in the same way. 3e-06

Entry source: patent US20240002497A1
